# Test system: LOX IMVI
# Protocol: NCI tumour cell line growth inhibition, 48 h
Calls of active or inactive are those of the source. Rule as the data show it: active = GI50 up to about 1.1 µM and inactive = higher.
Your reply should match one of these outcome classes. active, inactive

Worked examples, 4 molecules total:
1) C=C1Cc2cc(OC)c(OC)c(OC)c2-c2ccc(SC)c(=O)cc21
active
2) COC(=O)c1c(C)cccc1C1CN=NC12Cc1ccc(C)c(C)c1C2=O (stereo not given)
inactive
3) O=C(/C=C/c1ccc(-c2ccccc2)cc1)c1ccccc1
inactive
4) COC1/C=C\OC2(C)Oc3c(C)c(O)c4c(O)c(c(/C=N\OCCCc5ccccc5)c(O)c4c3C2=O)NC(=O)/C(C)=C\C=C/C(C)C(O)C(C)C(O)C(C)C(OC(C)=O)C1C (stereo not given)
inactive

Next:
Could you please tell me the result logged for CNc1ncnc2c1cnn2COCC(O)CO (stereo not given) in this assay?
inactive

----------
# System: A549
# Protocol: NCI tumour cell line growth inhibition, 48 h
Calls of active or inactive are those of the source. No stated cut-off is given here; in the data, active = GI50 up to about 1.1 µM and inactive = higher.
Your reply should match one of these outcome classes. active, inactive

1. c1ccc(C(=NNc2nc3ccccc3[nH]2)c2ccccn2)nc1
active
2. CO/N=C(\C(=O)N(C)n1cnnc1)c1csc(NC(c2ccccc2)(c2ccccc2)c2ccccc2)n1
inactive
3. Oc1ccc2ccccc2c1/N=N/c1ccc(F)cc1
inactive
4. CCN1CCN(c2ccc(Nc3ccnc4ccc5nn(C)nc5c34)cc2)CC1
inactive
5. COc1cc2c(cc1OC)C1=Cc3ccc(OC)c(OC)c3C(C#N)N1CC2 (stereo unspecified)
inactive

Could you please tell me the result logged for CC1(C)COC(c2cccnc2/C=N/O)=N1 in this assay?
inactive

How about CN1OC(CO)CC12C1CC3CC(C1)CC2C3 (stereo unspecified) ?
inactive

How about O=C(Nc1nc(C23CC4CC(CC(C4)C2)C3)cs1)c1cc2cc(Br)cc(Br)c2oc1=O ?
inactive

How about CCOC(=O)P(=O)(O)c1ccc(N(C)Cc2ccccc2)cc1 ?
inactive

How about Cc1cc(C)nc(NS(=O)(=O)c2ccc(NNc3c4ccccc4nc4c(C(=O)Nc5ccc(S(=O)(=O)Nc6cc(C)on6)cc5)cccc34)cc2)n1 ?
inactive

How about COc1ccc(/C=C\c2cc(OC)c(O[Si](C)(C)C(C)(C)C)c(OC)c2)cc1 ?
inactive

----------
Property: GI50; scope: individual compounds
# Tested on: SK-MEL-28
# Protocol: NCI tumour cell line growth inhibition, 48 h
Activity calls are given as the source filed them. Cut-off read from the data, not from the text of the source: active = GI50 up to about 1.1 µM and inactive = higher.

Worked examples follow.
1. COc1ccc2[nH]c(CCNC(=O)c3cc([N+](=O)[O-])cc([N+](=O)[O-])c3)cc2c1
> 100 µM (inactive)
2. Cc1cccc(/N=N/C(=N\NC(=O)c2cc(Cl)ccc2O)c2ccc(N(CCC#N)CCC#N)cc2C)c1
42.9 µM (inactive)
3. N#CC1C2CCC3(CC2CCN1C(=O)c1ccccc1)OCCO3 (stereo not given)
> 100 µM (inactive)
4. BrCCCCCOc1ccc(-c2c3ccccc3c(-c3ccc(OCCCCCBr)cc3)c3ccccc23)cc1
> 100 µM (inactive)

Need GI50, item O=C1CC[N+]2=Cc3ccccc3O[B-]2(c2ccccc2)O1 (stereo not given)
> 100 µM (inactive)

----------
# Test system: KM-20L2
# Protocol: NCI tumour cell line growth inhibition, 48 h
Calls of active or inactive are those of the source. Rule as the data show it: active = GI50 up to about 1.1 µM and inactive = higher.
Value type: GI50

Worked examples follow.
1. COc1cc2cc3c4cc(OC)c(OC)cc4cc[n+]3cc2cc1OC
> 57.4 µM (inactive)
2. O=[N+]([O-])c1cccc(C2SCc3nc4ccccc4n32)c1 (stereo not drawn)
> 100 µM (inactive)

Note: attention shifts to another entry.
Need GI50, item O=C(Cc1ccccc1[N+](=O)[O-])C(CO)c1ccccc1[N+](=O)[O-] (stereo not drawn)
> 100 µM (inactive)

----------
# System: NCI-H460
# Protocol: NCI tumour cell line growth inhibition, 48 h
The source made the active and inactive calls. Rule as the data show it: active = GI50 up to about 1.1 µM and inactive = higher.
Your reply should match one of these outcome classes. yes (1) (active), no (0) (inactive)

Worked examples, 3 molecules total:
1) O=[N+]([O-])c1cccc(C2SCc3nc4ccccc4n32)c1 (stereo not given)
no (0)
2) Cn1c(-c2cccs2)cc(-c2cccs2)c1-c1ccco1
no (0)
3) CCc1nc(N)nc(N)c1-c1ccc(Cl)c([N+](=O)[O-])c1
yes (1)

Next:
Could you please tell me the result logged for C=CCN1C(=O)C/C(=C2/CCC(=O)N2CC=C)C1=O in this assay?
no (0)

----------
# Tested on: NCI/ADR-RES
# Protocol: NCI tumour cell line growth inhibition, 48 h
Calls of active or inactive are those of the source. Cut-off read from the data, not from the text of the source: active = GI50 up to about 1.1 µM and inactive = higher.
Your reply should match one of these outcome classes. active, inactive

Worked examples, 4 molecules total:
1) CCOC(=O)P(=O)(O)c1ccc(N(C)Cc2ccccc2)cc1
inactive
2) Cc1cc(C)nc(NS(=O)(=O)c2ccc(NNc3c4ccccc4nc4c(C(=O)Nc5ccc(S(=O)(=O)Nc6cc(C)on6)cc5)cccc34)cc2)n1
inactive
3) CNc1ncnc2c1cnn2COCC(O)CO (stereo not given)
inactive
4) O=C1CCCc2cc3c(cc21)CC1(C3)Cc2cc3c(cc2C1)C(=O)CCC3
active

Next:
Could you please tell me the result logged for BrCCCCCOc1ccc(-c2c3ccccc3c(-c3ccc(OCCCCCBr)cc3)c3ccccc23)cc1 in this assay?
inactive

----------
# Test system: OVCAR-4
# Protocol: NCI tumour cell line growth inhibition, 48 h
Calls of active or inactive are those of the source. Rule as the data show it: active = GI50 up to about 1.1 µM and inactive = higher.
Property: GI50; scope: individual compounds

Worked examples follow.
1. CCOC(=O)CCC(NC(=O)c1ccc(NC(OC)c2nc3cc(C(F)(F)F)ccc3nc2-c2ccccc2)cc1)C(=O)OCC (stereo not given)
21.5 µM (inactive)
2. N#CC(C(=O)/C(=N\Nc1nc(S)nn1N)C(C#N)c1ccc(Cl)cc1)c1ccc(Cl)cc1 (stereo not given)
> 100 µM (inactive)
3. OCCSCCCSCCO
> 100 µM (inactive)
4. Cc1ccc2nc(CC(=O)c3ccc4ccccc4c3)c(O)nc2c1
> 100 µM (inactive)
5. CC1CC(c2ccc(Cl)cc2)=Nc2ccccc2S1 (stereo not given)
> 100 µM (inactive)
6. O=c1cccccc1NCCCCCCCCCNc1cccccc1=O
1.78 µM (inactive)

Need GI50, item O=C1NN(c2ccccc2)C(=O)C2C3c4ccccc4C(c4ccccc43)C12 (stereo not given)
60 µM (inactive)

How about C[C@@]1(O)C[C@@H](N2C(=O)O[C@@H](c3ccccc3)[C@H]2c2ccccc2)[C@@H]1COCc1ccccc1 ?
22.9 µM (inactive)

How about CCCCCCCCOC(=O)C12Oc3ccc(-c4ccc5c(c4O)C(=O)C4=C(O)CC(C)C(O)C4(C(=O)OCCCCCCCC)O5)c(O)c3C(=O)C1=C(O)CC(C)C2O (stereo not given) ?
19.6 µM (inactive)

How about CC(C)(C)C(=O)C1CC(=O)c2ccccc2C1=O (stereo not given) ?
33 µM (inactive)

----------
# Test system: CCRF-CEM
# Protocol: NCI tumour cell line growth inhibition, 48 h
Active and inactive are the calls of the source. Cut-off read from the data, not from the text of the source: active = GI50 up to about 1.1 µM and inactive = higher.
Property: GI50; scope: individual compounds

Worked examples follow.
1. Nc1nc(Cl)c2nnn(CC3CCC(CO)C3)c2n1 (stereo unspecified)
> 100 µM (inactive)
2. NC(=S)NS(=O)(=O)c1ccc(Cl)cc1
> 100 µM (inactive)
3. N#Cc1cc([N+](=O)[O-])ccc1NC(=O)C(=O)C(C(=O)/C=C/c1ccccc1)C1OC(=O)c2ccccc21 (stereo unspecified)
8.65 µM (inactive)
4. N#Cc1c(=O)c2ccccc2n2ccccc12
> 100 µM (inactive)
5. Nc1ccc2nc(N)n[n+]([O-])c2c1
> 100 µM (inactive)

Note: attention shifts to another entry.
Short answer please: GI50, CCRF-CEM, entry COc1ccc(-c2nc3cc(F)ccc3s2)cc1O
4.53 µM (inactive)

----------
# System: SN12C
# Protocol: NCI tumour cell line growth inhibition, 48 h
Calls of active or inactive are those of the source. Cut-off read from the data, not from the text of the source: active = GI50 up to about 1.1 µM and inactive = higher.
Value type: GI50

1. C/C(=N\NC(N)=S)c1ccccn1.OB(O)c1ccccc1
3.52 µM (inactive)
2. CSc1cc(Cl)c(C)cc1S(=O)(=O)NC(=O)NNc1ccc(Cl)cc1
> 100 µM (inactive)
3. NC1(C(=O)O)CCCC1C(=O)O (stereo not given)
> 100 µM (inactive)
4. O=S(=O)(c1ccc(/N=N/O)nc1)c1ccc2ccccc2c1
95.5 µM (inactive)
5. Cc1cc2nc3c(C#N)c(-c4ccccc4)cc(Nc4cccc(C(F)(F)F)c4)n3c2cc1C
3.68 µM (inactive)
6. Cc1ccc(/N=N/C(=O)NNc2ccc(C)c([N+](=O)[O-])c2)cc1[N+](=O)[O-]
31.4 µM (inactive)
7. N#Cc1c(N)nc(Sc2ccccc2N)c(C#N)c1-c1ccc(Cl)cc1
13.8 µM (inactive)
8. O=C(Nc1cc2c(=O)[nH]c3ccccc3c2oc1=O)c1cnccn1
> 100 µM (inactive)

Need GI50, item CCOC(=O)c1c(SC(=O)/C=C/c2ccccc2)n(-c2ccccc2)c(=S)n(-c2ccccc2)c1=O
> 100 µM (inactive)

How about NC(=S)N/N=C(\C(=O)Nc1ccc(Cl)c(Cl)c1)C1=NN(c2ccccc2)C(c2cccc([N+](=O)[O-])c2)CC1=O (stereo not given) ?
16.8 µM (inactive)

Where do the numbers come from? From ChEMBL document CHEMBL1201862.
